Assignment: determine reported melting point for the given compounds.

{"chemicalString": "COc1cc(/C=C2\\NC(=S)NC2=O)cc(OC)c1O", "result": "240.1 to 242.6 °C"}
{"chemicalString": "COc1cc(/C=C2\\CC(=O)NC2=O)cc(OC)c1O", "result": "236.7 to 237.7 °C"}
{"chemicalString": "O=C1NC(=O)/C(=C/c2cc(O)cc(O)c2)S1", "result": "288.4 to 290.2 °C"}
{"chemicalString": "O=C1C/C(=C\\c2ccc(O)cc2O)C(=O)N1", "result": "> 300 °C"}

Okay, next one:
**Q:** Would you kindly share the measured melting point for [H]/N=C1/NC(=O)C(=Cc2ccc(O)cc2)N1C ?
**A:** 285.9 to 288 °C

###

Assignment: determine reported melting point for the given molecules.

{"chemicalString": "COc1ccc(/C=C2\\NC(=O)NC2=O)c(OC)c1", "melting point": "234.1 to 237.2 °C"}
{"chemicalString": "O=C1NC(=O)/C(=C/c2ccc(O)c(O)c2)S1", "melting point": "> 300 °C"}
{"chemicalString": "[H]/N=C1/NC(=O)C(=Cc2ccc(O)c(OC)c2)N1C", "melting point": "254.2 to 255.6 °C"}
{"chemicalString": "COc1ccc(/C=C2\\NC(=S)NC2=O)c(OC)c1", "melting point": "237.1 to 238.6 °C"}
{"chemicalString": "[H]/N=C1/NC(=O)C(=Cc2ccc(O)c(O)c2)S1", "melting point": "> 300 °C"}
{"chemicalString": "COc1ccc(/C=C2\\SC(=O)NC2=O)cc1O", "melting point": "254 to 257.6 °C"}

# batch size: 8; output melting point per entry
1. COc1ccc(/C=C2\NC(=O)NC2=O)cc1O
2. COc1cc(C=C2C(=O)NC(=S)NC2=O)cc(OC)c1O
3. COc1ccc(/C=C2\NC(=S)NC2=O)cc1
4. COc1ccc(/C=C2\CC(=O)NC2=O)c(OC)c1
5. COc1ccc(C=C2C(=O)NC(=O)NC2=O)cc1O
6. [H]/N=C1/NC(=O)C(=Cc2ccc(OC)cc2OC)S1
7. CCOc1cc(/C=C2\NC(=O)NC2=O)ccc1O
8. O=C1NC(=O)/C(=C/c2ccc(O)cc2)N1

**A:**
1. 250.7 to 253.4 °C
2. > 300 °C
3. 266.9 to 267.5 °C
4. 245.7 to 246.6 °C
5. 279.3 to 281.4 °C
6. 249.1 to 250.7 °C
7. 253 to 255.4 °C
8. > 300 °C

# batch size: 3; output melting point per entry
1. CCOc1cc(/C=C2\NC(=S)NC2=O)ccc1O
2. COc1cc(/C=C2\SC(=N)NC2=O)cc(OC)c1OC
3. [H]/N=C1/NC(=O)C(=Cc2ccc(OC)c(OC)c2)N1C

**A:**
1: 175.4 to 177.2 °C; 2: 253.3 to 254.8 °C; 3: 257.1 to 259 °C

###

Assignment: determine reported melting point for the given compounds.

# batch size: 6; output melting point per entry
1. COc1cc(/C=C2\NC(=O)NC2=O)cc(OC)c1O
2. COc1ccc(C=C2C(=O)NC(=S)NC2=O)cc1OC
3. COc1ccc(/C=C2\NC(=S)NC2=O)cc1O
4. COc1ccc(C=C2C(=O)NC(=S)NC2=O)cc1O
5. O=C1NC(=S)N/C1=C\c1ccc(O)c(O)c1
6. [H]/N=C1/NC(=O)C(=Cc2cc(O)cc(O)c2)S1

**A:**
266 to 268.5 °C
269.9 to 271.7 °C
279.6 to 282.2 °C
278.9 to 280.5 °C
> 300 °C
> 300 °C
